# Emax per entry
Assay System: BRG-1 (Homo sapiens, UniProt P51532)
Sequence (P51532 whole entry): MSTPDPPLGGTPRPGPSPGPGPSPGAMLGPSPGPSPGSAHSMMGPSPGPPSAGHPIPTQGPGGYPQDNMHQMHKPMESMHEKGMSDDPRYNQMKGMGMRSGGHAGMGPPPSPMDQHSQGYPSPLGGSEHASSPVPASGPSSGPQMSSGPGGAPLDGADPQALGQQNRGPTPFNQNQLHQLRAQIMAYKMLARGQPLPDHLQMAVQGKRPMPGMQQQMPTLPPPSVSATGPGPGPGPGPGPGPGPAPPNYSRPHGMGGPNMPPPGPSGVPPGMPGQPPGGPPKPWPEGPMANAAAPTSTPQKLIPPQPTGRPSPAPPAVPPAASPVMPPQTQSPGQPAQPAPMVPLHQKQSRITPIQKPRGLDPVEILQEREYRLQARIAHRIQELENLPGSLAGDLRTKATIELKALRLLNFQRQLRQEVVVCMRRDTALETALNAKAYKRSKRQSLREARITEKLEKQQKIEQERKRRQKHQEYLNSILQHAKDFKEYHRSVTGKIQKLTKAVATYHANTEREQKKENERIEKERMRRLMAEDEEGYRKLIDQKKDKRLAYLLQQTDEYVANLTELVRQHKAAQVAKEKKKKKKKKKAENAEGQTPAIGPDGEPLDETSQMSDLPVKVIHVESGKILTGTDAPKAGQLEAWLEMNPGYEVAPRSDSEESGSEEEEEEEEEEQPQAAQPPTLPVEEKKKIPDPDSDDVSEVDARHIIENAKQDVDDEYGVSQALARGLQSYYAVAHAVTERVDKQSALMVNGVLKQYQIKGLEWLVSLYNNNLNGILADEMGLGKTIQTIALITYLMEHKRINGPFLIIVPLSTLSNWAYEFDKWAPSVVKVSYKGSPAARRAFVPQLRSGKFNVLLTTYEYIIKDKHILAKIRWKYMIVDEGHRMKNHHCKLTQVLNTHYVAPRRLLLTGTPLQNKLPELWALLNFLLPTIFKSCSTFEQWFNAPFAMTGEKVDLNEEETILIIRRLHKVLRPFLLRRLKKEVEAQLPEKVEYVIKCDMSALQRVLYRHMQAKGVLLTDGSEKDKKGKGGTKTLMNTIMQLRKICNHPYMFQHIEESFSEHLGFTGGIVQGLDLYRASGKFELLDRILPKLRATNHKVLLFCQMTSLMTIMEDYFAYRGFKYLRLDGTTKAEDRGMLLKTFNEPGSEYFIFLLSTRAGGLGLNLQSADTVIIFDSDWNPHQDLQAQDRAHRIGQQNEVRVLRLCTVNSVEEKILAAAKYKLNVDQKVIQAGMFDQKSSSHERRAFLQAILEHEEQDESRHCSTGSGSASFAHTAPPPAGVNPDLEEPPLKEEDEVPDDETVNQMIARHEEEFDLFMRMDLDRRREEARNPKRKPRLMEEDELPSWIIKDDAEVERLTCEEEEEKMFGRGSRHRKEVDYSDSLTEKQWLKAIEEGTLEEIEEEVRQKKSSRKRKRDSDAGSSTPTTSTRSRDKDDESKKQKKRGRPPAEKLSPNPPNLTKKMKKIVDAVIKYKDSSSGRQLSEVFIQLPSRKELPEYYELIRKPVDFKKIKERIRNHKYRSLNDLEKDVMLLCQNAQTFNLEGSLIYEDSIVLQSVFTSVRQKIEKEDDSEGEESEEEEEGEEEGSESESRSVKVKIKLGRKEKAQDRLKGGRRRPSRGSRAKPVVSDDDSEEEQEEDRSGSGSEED
Test: ATPase catalytic activity assay of BRG-1 (ADP-Glo)
Type: biochemical
Condition Description: ATPase catalytic activity, ADP-Glo; read-out: BRG1 Max % Inhibition

CC(C)S(=O)(=O)c1cccc(C(=O)NCC(=O)Nc2nc(-c3cccc(-c4ccnc(CN)c4)c3)cs2)c1 :: > 70%
Cc1cc(-c2cccc(-c3csc(NC(=O)CNC(=O)c4cccc(C(C)(C)CO)c4)n3)c2)nc(C)n1 :: > 90%
C[C@@H]1CN(c2cc(F)cc(-c3csc(NC(=O)CNC(=O)c4ccc(Cl)c(C(C)(C)CO)c4)n3)c2)C[C@H](C)O1 :: > 95%

# ---- query compound ----
// Emax value for COc1cc(-c2csc(NC(=O)CNC(=O)c3ccc4c(c3)[C@](C)(C#N)COC4)n2)ccn1 : > 95%
